- measured_on: recombinant BACE1 protein (Homo sapiens (Human))
- assay_notes: BACE1 biochemical FRET based assay
- measurement_conditions: FRET, pH 5.0
property: IC50 (nM)

compound | IC50 [nM]
COc1cnc(C(=O)Nc2ccc(F)c([C@@]3(CF)N=C(N)O[C@@H]4C[C@@H](C)OC[C@@H]43)c2)cn1 [Compound I-069] | 11.7
Cc1cc(C(F)(F)F)cnc1C(=O)Nc1ccc(F)c([C@@]2(CF)N=C(N)O[C@@H]3C[C@@H](C)OC[C@@H]32)c1 [Compound I-100] | 16.6
C[C@@H]1C[C@H]2OC(N)=N[C@](CF)(c3cc(NC(=O)c4ccc(C(F)(F)F)cn4)ccc3F)[C@H]2CO1 [Compound I-099] | 19.1
NC1=N[C@](CF)(c2cc(NC(=O)c3ncc(C(F)(F)F)cc3Cl)ccc2F)[C@H]2COCC[C@H]2O1 [Compound I-108] | 20
C[C@@H]1C[C@H]2OC(N)=N[C@](CF)(c3cc(NC(=O)c4cnc(OC(F)F)cn4)ccc3F)[C@H]2CO1 [Compound I-089] | 9.8

1: NC1=N[C@](CF)(c2cc(NC(=O)c3cnc(OCF)cn3)ccc2F)[C@H]2COC3(CC3)C[C@H]2O1 [II-1]
2: NC1=N[C@](CF)(c2cc(NC(=O)c3ccc(OC(F)F)cn3)ccc2F)[C@H]2COCC[C@H]2O1 [Compound I-078]
3: [2H]C([2H])([2H])Oc1cnc(C(=O)Nc2ccc(F)c([C@@]3(CF)N=C(N)O[C@@H]4CCOC[C@@H]43)c2)cn1 [Compound I-104]
4: NC1=N[C@](CF)(c2cc(NC(=O)c3cnc(C(F)(F)F)cn3)ccc2F)[C@H]2COCC[C@H]2O1 [Compound I-107]
Ask: Put the entries in order of IC50, starting with the largest number. Use the labels to give the ranking in the order requested.
Reply: 4, 1, 3, 2
(4: 53.7 nM, 1: 21.9 nM, 3: 14.5 nM, 2: 9.8 nM)

* * *

The reader will find reported hERG inhibition (%) at 3 μM values listed item by item below.
- measured_on: human ether-a-go-go related gene (hERG) channel (Homo sapiens (Human))
- Sequence (Q12809 whole entry): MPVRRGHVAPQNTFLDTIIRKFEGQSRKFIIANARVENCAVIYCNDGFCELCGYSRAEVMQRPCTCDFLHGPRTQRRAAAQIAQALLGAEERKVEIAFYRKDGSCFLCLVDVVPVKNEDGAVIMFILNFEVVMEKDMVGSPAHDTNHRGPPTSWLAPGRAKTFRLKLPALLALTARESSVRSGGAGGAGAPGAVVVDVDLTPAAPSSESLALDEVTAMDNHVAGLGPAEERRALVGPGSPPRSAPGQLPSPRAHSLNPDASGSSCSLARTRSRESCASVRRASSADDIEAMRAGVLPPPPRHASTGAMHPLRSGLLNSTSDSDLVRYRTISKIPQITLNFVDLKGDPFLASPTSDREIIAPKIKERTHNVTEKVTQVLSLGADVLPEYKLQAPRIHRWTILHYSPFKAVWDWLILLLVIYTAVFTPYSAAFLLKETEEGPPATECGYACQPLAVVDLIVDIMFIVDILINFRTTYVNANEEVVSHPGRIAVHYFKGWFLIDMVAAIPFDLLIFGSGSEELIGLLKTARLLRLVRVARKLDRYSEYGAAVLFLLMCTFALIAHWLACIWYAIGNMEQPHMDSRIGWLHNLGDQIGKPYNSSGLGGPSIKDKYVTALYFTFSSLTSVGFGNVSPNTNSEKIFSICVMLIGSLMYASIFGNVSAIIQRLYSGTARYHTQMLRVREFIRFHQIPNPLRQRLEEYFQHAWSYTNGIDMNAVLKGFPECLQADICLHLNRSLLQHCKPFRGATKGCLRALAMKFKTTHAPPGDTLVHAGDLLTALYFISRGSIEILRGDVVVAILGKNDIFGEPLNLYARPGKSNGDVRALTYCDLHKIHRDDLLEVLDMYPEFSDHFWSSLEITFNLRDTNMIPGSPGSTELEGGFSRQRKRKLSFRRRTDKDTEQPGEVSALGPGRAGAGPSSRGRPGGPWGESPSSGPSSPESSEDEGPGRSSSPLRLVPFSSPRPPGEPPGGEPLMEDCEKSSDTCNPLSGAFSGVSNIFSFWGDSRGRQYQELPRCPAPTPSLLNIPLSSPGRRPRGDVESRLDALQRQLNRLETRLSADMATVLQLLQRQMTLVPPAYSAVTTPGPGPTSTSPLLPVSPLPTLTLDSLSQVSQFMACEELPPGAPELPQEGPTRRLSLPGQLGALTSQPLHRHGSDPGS
- assay_notes: hERG test
- Type: cell-based
- measurement_conditions: CHO cells expressing hERG
Quick note: give the figure in %, leave out the unit.

Sample answers from the record:
chemical_string | hERG inhibition (%) at 3 μM
NC1=N[C@](CF)(c2cc(NC(=O)c3cnc(-n4cncn4)cn3)ccc2F)[C@H]2COCC[C@H]2O1 | 11.6
COc1cnc(C(=O)Nc2ccc(F)c([C@@]3(CF)N=C(N)O[C@@H]4CCOC[C@@H]43)c2)cn1 | 5.39

// next item, hERG inhibition (%) at 3 μM requested
Ask: Give its hERG inhibition (%) at 3 μM value. Item: NC1=N[C@](CF)(c2cc(NC(=O)c3cnc(OC(F)F)cn3)ccc2F)[C@H]2COCC[C@H]2O1
Reply: 18.5

* * *

- measured_on: recombinant BACE2 protein (Homo sapiens (Human))
- Sequence (Q9Y5Z0 63-518): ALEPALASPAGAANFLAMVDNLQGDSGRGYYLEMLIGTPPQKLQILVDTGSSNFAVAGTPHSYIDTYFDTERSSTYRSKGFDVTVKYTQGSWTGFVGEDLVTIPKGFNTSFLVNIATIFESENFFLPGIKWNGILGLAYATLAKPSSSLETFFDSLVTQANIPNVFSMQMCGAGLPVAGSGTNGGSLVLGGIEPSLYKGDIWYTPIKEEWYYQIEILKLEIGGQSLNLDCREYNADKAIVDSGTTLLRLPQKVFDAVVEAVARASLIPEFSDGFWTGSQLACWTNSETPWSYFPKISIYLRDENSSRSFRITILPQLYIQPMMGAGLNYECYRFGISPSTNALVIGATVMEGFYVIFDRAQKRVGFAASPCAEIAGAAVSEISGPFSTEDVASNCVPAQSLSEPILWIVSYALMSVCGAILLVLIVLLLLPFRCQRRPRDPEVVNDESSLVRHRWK
- assay_notes: BACE2 biochemical FRET based assay
- measurement_conditions: pH 5.0
pIC50: −log10 of the molar value.
property: pIC50

chemical_string | measured_on | experimental_result
NC1=N[C@](CF)(c2cc(NC(=O)c3cnc(OCC4(F)CC4)cn3)ccc2F)[C@H]2COCC[C@H]2O1 | recombinant BACE2 protein (Homo sapiens (Human)) | 6.27
C[C@@H]1C[C@H]2OC(N)=N[C@](CF)(c3cc(NC(=O)c4cnc(C(F)F)cn4)ccc3F)[C@H]2CO1 | recombinant BACE2 protein (Homo sapiens (Human)) | 6.21
C[C@@H]1C[C@H]2OC(N)=N[C@](CF)(c3cc(NC(=O)c4ccc(C(F)(F)F)cn4)ccc3F)[C@H]2CO1 | recombinant BACE2 protein (Homo sapiens (Human)) | 6.26
[2H]C([2H])([2H])Oc1cnc(C(=O)Nc2ccc(F)c([C@@]3(CF)N=C(N)O[C@@H]4CCOC[C@@H]43)c2)cn1 | recombinant BACE2 protein (Homo sapiens (Human)) | 6.40

* * *

- measured_on: recombinant BACE1 protein (Homo sapiens (Human), UniProt P56817)
- Sequence (P56817 46-501): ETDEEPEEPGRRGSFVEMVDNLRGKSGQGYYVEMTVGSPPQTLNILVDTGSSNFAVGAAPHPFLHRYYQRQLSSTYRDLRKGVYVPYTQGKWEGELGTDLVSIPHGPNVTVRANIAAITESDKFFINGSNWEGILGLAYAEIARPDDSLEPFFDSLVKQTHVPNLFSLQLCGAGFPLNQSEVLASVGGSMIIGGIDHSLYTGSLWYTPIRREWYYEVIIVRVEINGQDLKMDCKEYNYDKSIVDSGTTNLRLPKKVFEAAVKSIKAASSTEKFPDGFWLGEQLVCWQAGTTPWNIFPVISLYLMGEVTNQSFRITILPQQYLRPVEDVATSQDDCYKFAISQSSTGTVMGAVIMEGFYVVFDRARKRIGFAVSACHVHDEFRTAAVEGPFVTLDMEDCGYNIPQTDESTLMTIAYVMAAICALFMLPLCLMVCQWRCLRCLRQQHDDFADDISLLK
- assay_notes: BACE1 biochemical FRET based assay
- measurement_conditions: FRET, pH 5.0
property: IC50 (nM)

Sample answers from the record:
chemical_string | display_unit | IC50
Cc1cc(C(F)(F)F)cnc1C(=O)Nc1ccc(F)c([C@@]2(CF)N=C(N)O[C@@H]3CCOC[C@@H]32)c1 | nM | 14.2
NC1=N[C@](CF)(c2cc(NC(=O)c3cnc(OC(F)F)cn3)ccc2F)[C@H]2COCC[C@H]2O1 | nM | 2.8
C[C@H]1COC[C@H]2[C@@H]1OC(N)=N[C@]2(CF)c1cc(NC(=O)c2cnc(OCF)cn2)ccc1F | nM | 4.3
C[C@@H]1C[C@H]2OC(N)=N[C@](CF)(c3cc(NC(=O)c4cnc(OCF)cn4)ccc3Cl)[C@H]2CO1 | nM | 9.5
C[C@@H]1C[C@H]2OC(N)=N[C@](CF)(c3cc(NC(=O)c4cnc(OCF)cn4)ccc3F)[C@H]2CO1 | nM | 14.8

a: CCOc1cnc(C(=O)Nc2ccc(F)c([C@@]3(CF)N=C(N)O[C@@H]4CCOC[C@@H]43)c2)cn1
b: COc1cnc(C(=O)Nc2ccc(F)c([C@@]3(CF)N=C(N)O[C@@H]4CCOC[C@@H]43)c2)cn1
c: C[C@@H]1OCC[C@H]2OC(N)=N[C@](CF)(c3cc(NC(=O)c4cnc(OCF)cn4)ccc3F)[C@@H]12
Ask: Put the entries in order of IC50, starting with the largest number. Use the labels to give the ranking in the order requested.
Reply: a, c, b

* * *

- measured_on: recombinant BACE2 protein (Homo sapiens (Human))
- assay_notes: BACE2 biochemical FRET based assay
- measurement_conditions: pH 5.0
pIC50: −log10 of the molar value.
property: pIC50

compound | measured_on | pIC50
Cc1cc(C(F)(F)F)cnc1C(=O)Nc1ccc(F)c([C@@]2(CF)N=C(N)O[C@@H]3C[C@@H](C)OC[C@@H]32)c1 [Compound I-100] | recombinant BACE2 protein (Homo sapiens (Human)) | 6.59

1: CCOc1cnc(C(=O)Nc2ccc(F)c([C@@]3(CF)N=C(N)O[C@@H]4CCOC[C@@H]43)c2)cn1 [Compound I-109]
2: NC1=N[C@](CF)(c2cc(NC(=O)c3cnc(OCC(F)F)cn3)ccc2F)[C@H]2COCC[C@H]2O1 [Compound I-079]
Ask: Exercise: compare 1 and 2 ; which one has the greater pIC50? Response format: the label of the selected entry.
Reply: 1

P: C[C@@H]1C[C@H]2OC(N)=N[C@](CF)(c3cc(NC(=O)c4cnc(OCF)cn4)ccc3Cl)[C@H]2CO1 [Compound I-065]
Q: C[C@@H]1COC[C@H]2[C@@H]1OC(N)=N[C@]2(CF)c1cc(NC(=O)c2cnc(OCF)cn2)ccc1F [Compound I-075]
Ask: Exercise: compare P and Q ; which one has the greater pIC50? Response format: the label of the selected entry.
Reply: P

* * *

- measured_on: recombinant BACE1 protein (Homo sapiens (Human))
- assay_notes: BACE1 biochemical FRET based assay
- measurement_conditions: BACE1 versus BACE2
property: Selectivity

compound | measured_on | Selectivity
NC1=N[C@](CF)(c2cc(NC(=O)c3cnc(OCF)cn3)ccc2F)[C@H]2COC3(CC3)C[C@H]2O1 [II-1] | recombinant BACE1 protein (Homo sapiens (Human)) | 44.7
COc1cnc(C(=O)Nc2ccc(F)c([C@@]3(CF)N=C(N)O[C@@H]4C[C@@H](C)OC[C@@H]43)c2)cn1 [Compound I-069] | recombinant BACE1 protein (Homo sapiens (Human)) | 123
NC1=N[C@](CF)(c2cc(NC(=O)c3cnc(OCF)cn3)ccc2F)[C@H]2[C@H](CF)OCC[C@H]2O1 [Compound I-010] | recombinant BACE1 protein (Homo sapiens (Human)) | 42.7

A: C[C@@H]1COC[C@H]2[C@@H]1OC(N)=N[C@]2(CF)c1cc(NC(=O)c2cnc(OCF)cn2)ccc1F [Compound I-075]
B: C[C@@H]1C[C@H]2OC(N)=N[C@](CF)(c3cc(NC(=O)c4cnc(C(F)F)cn4)ccc3F)[C@H]2CO1 [Compound I-088]
Ask: Exercise: compare A and B ; which one has the greater Selectivity? Response format: the label of the selected entry.
Reply: A
(A: 27.5, B: 11.2)

* * *

- measured_on: recombinant BACE1 protein (Homo sapiens (Human))
- assay_notes: BACE1 biochemical FRET based assay
- measurement_conditions: BACE1 versus BACE2
property: Selectivity

a: [2H]C([2H])([2H])Oc1cnc(C(=O)Nc2ccc(F)c([C@@]3(CF)N=C(N)O[C@@H]4CCOC[C@@H]43)c2)cn1 [Compound I-104]
b: C[C@@H]1C[C@H]2OC(N)=N[C@](CF)(c3cc(NC(=O)c4ncc(C(F)(F)F)cc4Cl)ccc3F)[C@H]2CO1 [Compound I-101]
Ask: Exercise: compare a and b ; which one has the greater Selectivity? Response format: the label of the selected entry.
Reply: a
(a: 27.5, b: 14.1)

a: NC1=N[C@](CF)(c2cc(NC(=O)c3ncc(C(F)(F)F)cc3Cl)ccc2F)[C@H]2COCC[C@H]2O1 [Compound I-108]
b: NC1=N[C@](CF)(c2cc(NC(=O)c3cnc(C(F)(F)F)cn3)ccc2F)[C@H]2COCC[C@H]2O1 [Compound I-107]
Ask: Hey, which is lower on measured Selectivity, a or b ? Response format: the label of the selected entry.
Reply: a
